Hey, just so you know, these numbers are from ChEMBL document CHEMBL1777725.

# Test system: HL-60
# measurement-protocol: Growth inhibition of human HL60 cells at 10 uM after 48 hrs by MTT assay
# Format: functional
# particulars: HL-60, 48 h, read-out: GI
measured-attribute: inhibition of growth at 10 µM (%)
Give just the numeric value; % need not be written.

[
  {
    "chemical-smiles": "O=C(N/N=C/c1ccc(-c2ccc(F)cc2F)o1)c1ccccc1O",
    "test-system": "HL-60",
    "units-of-measure": "%",
    "inhibition of growth at 10 µM": -9.5
  },
  {
    "chemical-smiles": "O=C(N/N=C/c1cccc(Br)c1)c1ccc(-c2ccccc2F)o1",
    "test-system": "HL-60",
    "units-of-measure": "%",
    "inhibition of growth at 10 µM": 27.6
  }
]

Ask | Could you tell me which inhibition of growth at 10 µM is on file for O=C(N/N=C/c1ccccc1)c1ccc(-c2ccc(Cl)cc2)o1 ?
Reply | 25.8

Ask | Returns the measured inhibition of growth at 10 µM for the input compound. Input: O=C(N/N=C/c1ccccc1Cl)c1ccc(-c2ccc(F)cc2)o1
Reply | -3.22

Ask | Record request: inhibition of growth at 10 µM value, item O=C(N/N=C/c1ccccc1O)c1ccc(-c2ccc(F)cc2F)o1
Reply | 43.1

====

# System: HL-60
# measurement-protocol: Growth inhibition of human HL60 cells at 10 uM after 48 hrs by MTT assay
# Assay type: functional
# particulars: HL-60, 48 h, read-out: GI
Measured inhibition of growth at 10 µM accompanies every entry in the list below.

Examples from the recorded data:
[
  {
    "chemical-smiles": "O=C(N/N=C/c1ccc(Cl)cc1)c1ccc(-c2ccccc2F)o1",
    "inhibition of growth at 10 µM": "6.49%"
  },
  {
    "chemical-smiles": "O=C(N/N=C/c1ccccc1O)c1ccc(-c2ccc(F)cc2)o1",
    "inhibition of growth at 10 µM": "13.1%"
  },
  {
    "chemical-smiles": "COc1ccccc1C(=O)N/N=C/c1ccc(-c2ccc(F)cc2F)o1",
    "inhibition of growth at 10 µM": "7.77%"
  },
  {
    "chemical-smiles": "Cc1cccc(/C=N/NC(=O)c2ccc(-c3ccccc3[N+](=O)[O-])o2)c1",
    "inhibition of growth at 10 µM": "9.54%"
  },
  {
    "chemical-smiles": "O=C(N/N=C/c1ccc(-c2cccc(F)c2)o1)c1ccc(Br)cc1",
    "inhibition of growth at 10 µM": "25.9%"
  },
  {
    "chemical-smiles": "Cc1cccc(C(=O)N/N=C/c2ccc(-c3ccccc3[N+](=O)[O-])o2)c1",
    "inhibition of growth at 10 µM": "6.25%"
  }
]

Ask | What value of inhibition of growth at 10 µM has been recorded for this entry: O=C(N/N=C/c1ccc(O)cc1)c1ccc(-c2ccc(F)cc2)o1
Reply | 1.07%

Ask | Query: inhibition of growth at 10 µM; subject: O=C(N/N=C/c1ccc(-c2ccccc2F)o1)c1ccc(Cl)cc1
Reply | 6.13%

Ask | Dear colleague, I am looking for the recorded inhibition of growth at 10 µM of the following compound: O=C(N/N=C/c1ccc(-c2ccc(F)cc2)o1)c1ccccc1O
Reply | -2.08%

Ask | Fill in the blank: the reported inhibition of growth at 10 µM of COc1ccccc1/C=N/NC(=O)c1ccc(-c2ccc(F)cc2F)o1 is ____.
Reply | 27.4%

Ask | Name the recorded inhibition of growth at 10 µM for O=C(N/N=C/c1ccc(-c2ccc(Cl)cc2)o1)c1ccccc1 .
Reply | 15.1%
